biological target: Inhibitor of nuclear factor kappa-B kinase subunit alpha (Homo sapiens); experiment: Inhibition of recombinant human N-terminal GST-tagged IKKalpha (1 to 745 residues) expressed in baculovirus expression system using biotinylated IkBalpha as substrate after 60 mins by DELFIA
Sequence (O15111 whole entry, the tested form may be a part): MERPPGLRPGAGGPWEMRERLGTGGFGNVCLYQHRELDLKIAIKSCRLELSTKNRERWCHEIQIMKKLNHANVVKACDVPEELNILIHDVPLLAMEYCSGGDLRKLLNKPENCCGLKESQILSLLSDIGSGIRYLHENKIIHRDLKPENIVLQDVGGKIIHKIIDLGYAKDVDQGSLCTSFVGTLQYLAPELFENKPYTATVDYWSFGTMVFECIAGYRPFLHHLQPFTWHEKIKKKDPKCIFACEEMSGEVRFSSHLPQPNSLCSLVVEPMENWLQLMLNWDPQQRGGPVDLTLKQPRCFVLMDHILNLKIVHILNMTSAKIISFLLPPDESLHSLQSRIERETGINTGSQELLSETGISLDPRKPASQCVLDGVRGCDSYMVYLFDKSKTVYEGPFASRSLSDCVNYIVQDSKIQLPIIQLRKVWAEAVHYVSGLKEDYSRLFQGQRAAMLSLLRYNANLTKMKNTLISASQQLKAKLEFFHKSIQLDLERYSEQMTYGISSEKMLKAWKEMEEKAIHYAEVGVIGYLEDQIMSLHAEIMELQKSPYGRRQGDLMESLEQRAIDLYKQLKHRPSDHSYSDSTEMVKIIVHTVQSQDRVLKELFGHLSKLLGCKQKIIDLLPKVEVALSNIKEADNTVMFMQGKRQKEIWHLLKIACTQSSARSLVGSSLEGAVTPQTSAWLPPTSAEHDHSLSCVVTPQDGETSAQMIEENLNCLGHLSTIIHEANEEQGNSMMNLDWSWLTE
pKi: −log10 of the molar value.
The reader will find reported pKi values listed item by item below.

Lab note: measured pKi of Nc1nc(N2CCCCC2)c2cc[nH]c2n1 was < 4.52

Lab note: measured pKi of Nc1nc(N[C@H]2CC[C@H](O)CC2)c2cc[nH]c2n1 was < 4.52

Please find the next molecule below.
Lab note: measured pKi of Nc1nc(NC2CCCCC2)c2cc[nH]c2n1 was < 4.52

Values from ChEMBL document CHEMBL4038327
